# Test system: A498 renal
# METHOD: NCI tumour cell line growth inhibition, 48 h
Catalogue of compounds with associated TGI
Reply with just the number (in µM).

See these solved cases before continuing.
1) CCN(CC)CCCC(Cc1ccccc1)Nc1c2ccc(Cl)cc2nc2ccc(OC)cc12 (stereo not given)
5.09
2) CNC(=O)NC(CCCCNC(=O)OCc1ccccc1)C(=O)OCc1ccccc1 (stereo not given)
71.4

--- query ---
Fill in the blank: the reported TGI of "O=[N+]([O-])C(=C(N1CCCCC1)N1CCCCC1)/C(Cl)=C(\Cl)[N+](=O)[O-]" is ____.
32.1

###

# Test system: CCRF-CEM leukemia
# METHOD: NCI tumour cell line growth inhibition, 48 h
MEASUREMENT_TYPE: TGI (µM)
Reply with just the number (in µM).

See these solved cases before continuing.
1) O=C(O)c1cccc2cccc(C(=O)O)c12.[Hg]
29.2
2) N#C/C(=C1C=C/C(=N\O)C(Cl)=C\1)c1ccccc1
2.37
3) CC1OC(n2c3ccccc3c3c4c(c5c6ccccc6[nH]c5c32)C(=O)N(CCN2CCOCC2)C4=O)CC(O)C1O (stereo not given)
18.1

--- query ---
Fill in the blank: the reported TGI of "N#Cc1cc(N(CCCl)CCCl)c([N+](=O)[O-])cc1[N+](=O)[O-]" is ____.
98.2

###

# Tested on: SK-MEL-28 melanoma
# METHOD: NCI tumour cell line growth inhibition, 48 h
MEASUREMENT_TYPE: TGI

1) NC(=O)Nc1c([N+](=O)[O-])cc(C(F)(F)F)cc1[N+](=O)[O-]
> 100 µM

What measured TGI is associated with "CSc1ccc(-c2cc(-c3nc4ccccc4[nH]3)nc(N)c2C#N)cc1" on SK-MEL-28 melanoma?
53.2 µM

Now try O=C(c1nc2ccc(Cl)cc2[nH]c1=O)C(O)c1ccc2c(c1)OCO2 (centres undefined) .
> 100 µM

Now try CC1=NN(C(=O)CC(=O)Nc2cccc(C)c2)C(=O)C1N=Nc1ccc(S(=O)(=O)c2ccc(N=NC3C(=O)N(C(=O)CC(=O)Nc4cccc(C)c4)N=C3C)cc2)cc1 (centres undefined) .
> 100 µM

Now try "COc1cc(-n2cnc(-c3ccc(Cl)cc3)c2)cc(OC)c1OC" .
29.7 µM

Now try Cc1ccc([N+](=O)[O-])cc1S(=O)(=O)Nc1ccc(C2=NN(C(=O)c3ccccc3)C(c3cccs3)C2)cc1 (centres undefined) .
> 100 µM

Now try COC(=O)C1(Cc2cccc(C)c2)Cc2c(C)cccc2C1=O (centres undefined) .
> 100 µM

Now try C/C=C1\CNC1C(=O)O (centres undefined) .
> 100 µM

Now try "COC1=CC(c2ccc[nH]2)=N/C1=C\c1[nH]c(C)c(C(C)=O)c1C" .
> 100 µM

###

# System: MDA-N
# METHOD: NCI tumour cell line growth inhibition, 48 h
Catalogue of compounds with associated TGI

See these solved cases before continuing.
1) O=C1NC(c2c(Cl)cccc2Cl)Nc2ccccc21 (stereo unspecified)
70.5 µM
2) CCOC(=O)N/N=C(\Cc1ccc([N+](=O)[O-])cc1)OCC
> 100 µM
3) N#C/C(C(=S)Nc1ccccc1)=C(/N)N1CCCC1
> 100 µM
4) COc1c(O)c(O)c2c(c1O)C(=O)c1cc(C)cc(O)c1C2=O
> 100 µM
5) NCCCCN(CCCN)Cc1ccc2ccccc2c1
51.7 µM

--- query ---
What measured TGI is associated with "O=c1c2cc(-c3ccccc3)cnc2sn1-c1ccc(Oc2ccccc2)cc1" on MDA-N?
> 100 µM

The values you see were collected from PubChem BioAssay (NCI).
